# Test system: U2OS
# Protocol description: Multiplex assay against U2OS
# Format: toxicity, cell-based
# Test conditions: human, 24 h, 1 µM, compound concentration 1 uM, replicate 1
Non-standard residues stand in square brackets, D forms with d. Residues, ends and D or L forms follow the SMILES beside them.
Measured metric: Population Normal (%)
Answers are plain numbers, in %.

Before answering, review these 5 worked examples.
>>> numeric_result("COc1cc2nc(N3CCN(C(=O)COc4c(OC)cccc4C(C)C)CC3)nc(N)c2cc1OC.Cl.Cl")
96
>>> numeric_result("Cc1cc(O)c(-c2ccc([C@@H](C)CN(C)C)cc2)c2c1[nH]c(=O)c1sccc12")
91
>>> numeric_result("CCCCC[C@H](O)/C=C/[C@H]1[C@H](O)CC(=O)[C@@H]1CCCCCCC(=O)O")
98
>>> numeric_result("CCn1c(-c2nc3cc(C(=O)N4CCCC(N)C4)ccc3n2C)cc2ccccc21.Cl (configuration not stated)")
98
>>> numeric_result("CN(C)C/C=C/C(=O)Nc1ccc(C(=O)N2CCCC(Nc3ncc(Cl)c(-c4c[nH]c5ccccc45)n3)C2)cc1 (configuration not stated)")
97

Batch of 5 compounds: report Population Normal (%) for each.
1. O=c1nc2[nH]c3ccccc3nc-2c(=O)[nH]1
2. CN1CCN2c3ccccc3Cc3ccccc3C2C1.Cl (configuration not stated) [MIANSERIN HYDROCHLORIDE]
3. CC(C)C[C@@H]1NC(=O)[C@@H](C(C)C)NC(=O)[C@@H]2CCCN2C(=O)[C@@H](CC(=O)O)NC(=O)[C@@H](Cc2c[nH]c3ccccc23)NC1=O [BQ-123] (cyclo(L[dW][dD]P[dV]))
4. Cc1cc(NC(=O)NCCN2CCC(O)(Cc3ccccc3)CC2)c2ccccc2n1
5. CN1C[C@H](C(=O)N[C@]2(C)O[C@@]3(O)[C@@H]4CCCN4C(=O)[C@H](Cc4ccccc4)N3C2=O)C[C@@H]2c3cccc4[nH]cc(c34)C[C@H]21.CS(=O)(=O)O [DIHYDROERGOTAMINE MESYLATE]

result:
98
98
99
98
99

Batch of 2 compounds: report Population Normal (%) for each.
1. CC(C)(C)c1ccc(CSc2cnn(C(C)(C)C)c(=O)c2Cl)cc1
2. CN(C)C(=O)Cn1cc(-c2ccc(-c3nnc4ccccn34)cc2)cn1

result:
1: 98; 2: 99

====

# Tested on: U2OS
# Protocol description: Multiplex assay against U2OS
# Type: toxicity, cell-based
# Test conditions: human, 24 h, 1 µM, compound concentration 1 uM, replicate 2
Assign Total Cell Count to each entry below.
Answers are plain numbers.

Before answering, review these 5 worked examples.
>>> numeric_result("Cc1cc(O)c(-c2ccc([C@@H](C)CN(C)C)cc2)c2c1[nH]c(=O)c1sccc12")
83
>>> numeric_result("CCCCCCNC(=O)Nc1ccc(S(=O)(=O)Nc2ccc(CCNC[C@H](O)COc3ccc(O)cc3)cc2)cc1")
143
>>> numeric_result("Cl.Cl.OCCOCCN1CCN(C(c2ccccc2)c2ccc(Cl)cc2)CC1 (stereo not given) [HYDROXYZINE HYDROCHLORIDE]")
148
>>> numeric_result("CN(C)C(=O)Cn1cc(-c2ccc(-c3nnc4ccccn34)cc2)cn1")
131
>>> numeric_result("Cc1nn(C)c2nc(NNC(=O)Nc3cc(Cl)nc(Cl)c3)cc(C(C)C)c12")
168

Batch of 4 molecules: report Total Cell Count for each.
1. Cn1cc(C(=O)OCC2CCN(CCNS(C)(=O)=O)CC2)c2ccccc21
2. Nc1nc(CC(=O)Nc2ccc(CCNC[C@H](O)c3ccccc3)cc2)cs1
3. CN1CCN(c2ccc(Nc3c4ccccc4nc4ccccc34)cc2)CC1.Cl.Cl.O
4. COC(c1ccccc1)(c1ccccc1)[C@H](Oc1nc(C)cc(C)n1)C(=O)O

result:
[144, 125, 124, 111]

Batch of 6 molecules: report Total Cell Count for each.
1. CCC(=O)OCC(=O)[C@@]1(OC(=O)CC)[C@@H](C)C[C@H]2[C@@H]3CCC4=CC(=O)C=C[C@]4(C)[C@@]3(Cl)[C@@H](O)C[C@@]21C [BECLOMETHASONE DIPROPIONATE]
2. Cc1sc2c(c1C)C(c1ccc(Cl)cc1)=N[C@H](CC(=O)OC(C)(C)C)c1nnc(C)n1-2
3. CC(C)C[C@H](CO)Nc1nc(S[C@@H](C)c2ccccc2)nc2nc(N)sc12
4. COc1c(Nc2ccc(S(C)(=O)=O)nc2C)ncnc1OC1CCN(C(=O)OC(C)C)CC1
5. CN1CCC(C(=O)c2cccc(NC(=O)c3c(F)cc(F)cc3F)n2)CC1
6. CCn1c(-c2nc3cc(C(=O)N4CCCC(N)C4)ccc3n2C)cc2ccccc21.Cl (stereo not given)

result:
123
149
121
129
113
112

Batch of 5 molecules: report Total Cell Count for each.
1. CSc1nc(NC2CCCC2)c([N+](=O)[O-])c(NC2CCCC2)n1
2. OCCCNc1cc(-c2ccnc(Nc3cccc(Cl)c3)n2)ccn1
3. C=CCN1C[C@H](C(=O)N(CCCN(C)C)C(=O)NCC)C[C@@H]2c3cccc4[nH]cc(c34)C[C@H]21
4. C[C@H](NC(=O)CNC(=O)c1cccc(Cl)c1)c1ccccc1
5. CN(C)C/C=C/C(=O)Nc1ccc(C(=O)N2CCCC(Nc3ncc(Cl)c(-c4c[nH]c5ccccc45)n3)C2)cc1 (stereo not given)

result:
1. 119
2. 77
3. 162
4. 168
5. 164

====

Assign Population Mitochondria Different-Phenotype (%) to each entry below.
# Test system: Fibroblast
# Protocol description: Multiplex assay against human fibroblast
# Format: toxicity, cell-based
# Test conditions: 24 h, 10 µM, compound concentration 10 uM, replicate 2
Numbers only, in %.

>>> numeric_result("S=C(NCCCc1c[nH]cn1)NCCCN(Cc1ccc(Cl)c(Cl)c1)c1ccc(Br)cn1")
7

Batch of 4 molecules: report Population Mitochondria Different-Phenotype (%) for each.
1. Cl.Cl.OCCOCCN1CCN(C(c2ccccc2)c2ccc(Cl)cc2)CC1 (stereo not given) [HYDROXYZINE HYDROCHLORIDE]
2. C[C@@H]1CC(=O)Nc2cccc(-c3ccc4c(c3)c(-c3cnn(C)c3)nn4C)c2N1
3. O=c1nc2[nH]c3ccccc3nc-2c(=O)[nH]1 [ALLOXAZINE]
4. Cc1ccc(OCC(O)C(C)NC(C)C)c2c1CCC2.Cl (stereo not given)

result:
[6, 4, 7, 14]

====

# Test system: U2OS
# Protocol description: Multiplex assay against U2OS
# Assay type: toxicity, cell-based
# Test conditions: human, 12 h, 1 µM, compound concentration 1 uM, replicate 1
Non-standard residues stand in square brackets, D forms with d. Residues, ends and D or L forms follow the SMILES beside them.
Measured metric: Population Fragmented Nuclei (%)
Give bare numbers, in %.

>>> numeric_result("S=C(NCCCc1c[nH]cn1)NCCCN(Cc1ccc(Cl)c(Cl)c1)c1ccc(Br)cn1")
27

Batch of 3 compounds: report Population Fragmented Nuclei (%) for each.
1. CN1C[C@H](C(=O)N[C@]2(C)O[C@@]3(O)[C@@H]4CCCN4C(=O)[C@H](Cc4ccccc4)N3C2=O)C[C@@H]2c3cccc4[nH]cc(c34)C[C@H]21.CS(=O)(=O)O [DIHYDROERGOTAMINE MESYLATE]
2. COC(c1ccccc1)(c1ccccc1)[C@H](Oc1nc(C)cc(C)n1)C(=O)O
3. CC(C)C[C@@H]1NC(=O)[C@@H](C(C)C)NC(=O)[C@@H]2CCCN2C(=O)[C@@H](CC(=O)O)NC(=O)[C@@H](Cc2c[nH]c3ccccc23)NC1=O [BQ-123] (cyclo(L[dW][dD]P[dV]))

result:
1. 24
2. 26
3. 20

====

Assign Population Healthy Nuclei (%) to each entry below.
# System: Fibroblast
# Protocol description: Multiplex assay against human fibroblast
# Assay type: toxicity, cell-based
# Test conditions: 48 h, 1 µM, compound concentration 1 uM, replicate 2
Non-standard residues stand in square brackets, D forms with d. Residues, ends and D or L forms follow the SMILES beside them.
Answers are plain numbers, in %.

Before answering, review these 5 worked examples.
>>> numeric_result("CSc1nc(NC2CCCC2)c([N+](=O)[O-])c(NC2CCCC2)n1 [GS-39783]")
44
>>> numeric_result("Cc1nn(C)c2nc(NNC(=O)Nc3cc(Cl)nc(Cl)c3)cc(C(C)C)c12")
62
>>> numeric_result("O=C(Nc1cc(-c2ccccc2)nn1-c1ccccc1F)c1ccc([N+](=O)[O-])cc1")
53
>>> numeric_result("COc1ccc2c(c1OCc1ccccc1)C[C@@H](C(=O)O)N(C(=O)C(c1ccccc1)c1ccccc1)C2 [OLODANRIGAN]")
52
>>> numeric_result("CC(C)C[C@@H]1NC(=O)[C@@H](C(C)C)NC(=O)[C@@H]2CCCN2C(=O)[C@@H](CC(=O)O)NC(=O)[C@@H](Cc2c[nH]c3ccccc23)NC1=O [BQ-123] (cyclo(L[dW][dD]P[dV]))")
56

Batch of 5 compounds: report Population Healthy Nuclei (%) for each.
1. CCCCC[C@H](O)/C=C/[C@H]1[C@H](O)CC(=O)[C@@H]1CCCCCCC(=O)O [ALPROSTADIL]
2. S=C(NCCCc1c[nH]cn1)NCCCN(Cc1ccc(Cl)c(Cl)c1)c1ccc(Br)cn1
3. Cn1cc(C(=O)OCC2CCN(CCNS(C)(=O)=O)CC2)c2ccccc21
4. Cc1cc(O)c(-c2ccc([C@@H](C)CN(C)C)cc2)c2c1[nH]c(=O)c1sccc12
5. CN(C)C(=O)Cn1cc(-c2ccc(-c3nnc4ccccn34)cc2)cn1

result:
1: 51; 2: 59; 3: 54; 4: 48; 5: 52

Batch of 2 compounds: report Population Healthy Nuclei (%) for each.
1. O=c1nc2[nH]c3ccccc3nc-2c(=O)[nH]1 [ALLOXAZINE]
2. CC(F)(F)CN1CCOc2c(nn(-c3ccccc3Cl)c2-c2ccc(Cl)cc2)C1=O

result:
48
53

Measured values drawn from ChEMBL document CHEMBL5058577 for this set.
